- target.system: human mAChR M4 (Homo sapiens, UniProt P08173)
- Construct: expressed in transfected cells
- Sequence (P08173 1-479): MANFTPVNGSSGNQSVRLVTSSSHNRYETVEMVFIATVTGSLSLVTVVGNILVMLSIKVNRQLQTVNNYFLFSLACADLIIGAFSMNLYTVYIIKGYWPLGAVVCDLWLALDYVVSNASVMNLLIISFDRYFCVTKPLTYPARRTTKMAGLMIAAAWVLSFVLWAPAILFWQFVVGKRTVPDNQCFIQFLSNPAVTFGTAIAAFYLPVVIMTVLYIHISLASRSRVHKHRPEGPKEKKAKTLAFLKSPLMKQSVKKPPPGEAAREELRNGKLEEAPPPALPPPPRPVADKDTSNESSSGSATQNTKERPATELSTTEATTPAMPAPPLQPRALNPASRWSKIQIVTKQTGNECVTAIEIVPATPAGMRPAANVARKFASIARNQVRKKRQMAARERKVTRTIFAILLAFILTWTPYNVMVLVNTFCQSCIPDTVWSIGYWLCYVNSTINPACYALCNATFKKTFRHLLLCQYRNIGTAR
- test.description: mAChR M4 cell-based functional assay (calcium mobilization, CHO-K1 hM4-Gqi5 cells)
- run.parameters: positive allosteric modulator activity, increase in the EC20 acetylcholine response, CHO-K1 hM4-Gqi5 cells; read-out: Human M4 EC50
Threshold-based label: EC50 under 500 nM gives Satisfied, EC50 not under 500 nM gives Not satisfied.

molecule	answer.label
Cc1cc(C(=O)N2CC(F)(F)C2)nnc1N1CCc2ncc(N3CCO[C@H](C)C3)cc2C1 [Example 539]	Satisfied
Cc1ccc(Oc2cnc3c(c2)CN(c2nc(C)nc(C)c2C)CC3)c(F)c1 [compound 269]	Not satisfied
Cc1cc(C#N)cnc1N1CCc2ncc(-c3cnn(Cc4ccccc4)c3)cc2C1 [compound 97]	Not satisfied
Cc1nc(Cl)c(C)c(N2CCc3ncc(Oc4ccc(F)cc4)cc3C2)n1 [compound 202]	Not satisfied
COCCOc1cnc2c(c1)CN(c1ncc(C#N)cc1C)CC2 [Example 434]	Not satisfied
Cc1cc(C(=O)N2Cc3cccnc3C2)nnc1N1CCc2ncc(N3CCCn4nccc43)cc2C1 [Example 513]	Satisfied
Cc1cc(C(=O)NCc2ncc(Cl)cn2)cnc1N1CCc2ncccc2C1 [compound 146]	Not satisfied

* * *

- target.system: human mAChR M4 (Homo sapiens, UniProt P08173)
- Construct: expressed in transfected cells
- test.description: mAChR M4 cell-based functional assay (calcium mobilization, CHO-K1 hM4-Gqi5 cells)
- run.parameters: CHO-K1, % ACh maximum at 30 μM; human M4
Listed below: Emax at 30 µM values for each entry.
measurement.label: Emax at 30 µM (%)

compound	display.unit	readout.number
Cc1cnc2c(c1)CN(c1ncc(C(=O)NCc3ccncc3C)cc1C)CC2	%	88
Cc1cc(C#N)cnc1N1CCc2ncc(-c3ccc(C4CC4)nc3)cc2C1	%	97
Cc1cc(C(=O)Nc2ccncc2)cnc1N1CCc2ncccc2C1	%	70
Cc1nc(C(F)(F)F)nc(N2CCc3ncc(N4CCCn5nccc54)cc3C2)c1C	%	79
Cc1cc(C#N)cnc1N1CCc2ncc(N3CCN(C)CC3=O)cc2C1	%	43
Cc1cc(C(=O)NCc2nccs2)cnc1N1CCc2ncc(-c3c(C)noc3C)cc2C1	%	93
Cc1cc(C(=O)NCc2ccc3nccnc3c2)cnc1N1CCc2ncccc2C1	%	57
Cc1c(C#N)nnc(N2CCc3ncc(Nc4cccc(Cl)c4F)cc3C2)c1C	%	66
Cc1ccccc1OCCOc1cnc2c(c1)CN(c1ncc(C#N)cc1C)CC2	%	42
Cc1cc(C#N)cnc1N1CCc2ncc(-c3cnn(CC4CC4)c3)cc2C1	%	86
Cc1nn(C)cc1-c1cnc2c(c1)CN(c1nc(NC3CCOC3)nc(C)c1C)CC2 (centres unmarked)	%	92
Cc1cc2c(nc1N1CCc3ncc(C(F)(F)F)cc3C1)OCCN(Cc1ccccc1)C2=O	%	38
Cc1cc(C(=O)NCc2ccncc2Cl)nnc1N1CCc2ncc(C(F)(F)F)cc2C1	%	101
Cc1cc(C(=O)NC2CCOCC2)cnc1N1CCc2ncccc2C1	%	55
Cc1nc(C)c(C)c(N2CCc3ncc(-c4ccc(N5CCOCC5)nc4)cc3C2)n1	%	67
Cc1c(C(=O)NCc2ccccn2)nnc(N2CCc3ncccc3C2)c1C	%	91
Cc1c(Cl)nc(C(F)(F)F)nc1N1CCc2ncc(N3CCCn4nccc43)cc2C1	%	88
Cc1nn(C)cc1-c1cnc2c(c1)CN(c1nc(N3CCOCC3)nc(C)c1C)CC2	%	70
Cc1nc(C)c(C)c(N2CCc3ncc(Oc4ccc(F)cc4F)cc3C2)n1	%	77
Cc1ccncc1-c1cnc2c(c1)CN(c1nnc(C#N)c(C)c1C)CC2	%	76
Cc1c(Cl)nc(C(F)(F)F)nc1N1CCc2ncc(C(F)(F)F)cc2C1	%	73
Cc1nc(C)c(-c2cnc3c(c2)CN(c2ncc(C#N)cc2C)CC3)s1	%	111
COc1cc(CNC(=O)c2cnc(N3CCc4ncccc4C3)c(C)c2)ccc1F	%	64
Cc1cc(C(=O)N2CCCC2(C)C)nnc1N1CCc2ncc(N3CCCn4nccc43)cc2C1	%	68
Cc1cc(C(=O)N(C)Cc2ccncc2)nnc1N1CCc2ncc(C(F)(F)F)cc2C1	%	84
COc1ccc(-c2cnc3c(c2)CN(c2ncc(C#N)cc2C)CC3)cn1	%	106
[2H]C([2H])([2H])c1cnc2c(c1)CN(c1nnc(C(=O)N3CCCC3)cc1C)CC2	%	105
Cc1cc(C(=O)N2CC(Cl)C2)nnc1N1CCc2ncc(-n3cccn3)cc2C1	%	90
Cc1nn(C)cc1-c1cnc2c(c1)CN(c1nc(NC3CC3)nc(C)c1C)CC2	%	78
Cc1cnccc1-c1cnc2c(c1)CN(c1nnc(C#N)c(C)c1C)CC2	%	89
Cc1cc(C#N)cnc1N1CCc2ncc(-c3cccnc3)cc2C1	%	98
Cc1nn(C)cc1-c1cnc2c(c1)CN(c1nc(NCC(C)(C)O)nc(C)c1C)CC2	%	87
Cc1cc(C(=O)NCc2ccc[nH]2)cnc1N1CCc2ncccc2C1	%	65
Cc1nc(C)c(C)c(N2CCc3ncc(-c4ccc(N5CCCC5)nc4)cc3C2)n1	%	63
Cc1cc(C(=O)NCC2CCOCC2)cnc1N1CCc2ncccc2C1	%	51

Values compiled from patent US20250230155A1.
